- Tested on: MS2 coat protein
- assayComment: apparent KD of MS2 coat protein; designed switch direction (-1 OFF switch, 1 ON switch): -1; higher = weaker reporter binding
- condition: input ligand: FMN 200 uM
For each entry below, report its apparent KD of MS2 coat protein value.
Answers are plain numbers, in nM.

Please state apparent KD of MS2 coat protein for every sequence in the list that follows.
1. UUUUGGCAUGUAGGAUAUGGGUCCGAUUAGGAUUUAGAAGGACAUGAGGAUCACCCAUGUGCCCUUACUUGGUCUUUUUUUUUU [EXclNG1-LROPPY18] (Eterna round: R96, puzzle: Exclusion NG 1)
2. AGCAUGAGAGAGGAUAUGGUCGCCGCAACAUGACCAGAAGGCUCAACAUGAGGAUCACCCAUGUGGCCCGGCUC [Eternabot (L1) Solution 33] (Eterna round: R97, puzzle: Exclusion 6)
3. UCUGGUCGAGGAUAUACAUUCGUGCUUCGGCACGUAAGAUCACAUGAGGAUCACCCAUGUAGAAGGCGACCAGA [E2/5-A3] (Eterna round: R97, puzzle: Exclusion 2)
4. AUCCUCUAGAAGGAUAUGCAGGUUGAAUAAACCGCAGAAGGUUUUACAUGAGGAUCACCCAUGUGUAUAACACA [Eternabot (L2) Solution 100] (Eterna round: R97, puzzle: Exclusion 6)
5. GGGAUGUCAGGAUAUGAUUAGCACGGCGGUAGCCGCGUUACUUAGAAGGGACAUGAGGAUCACCCAUGUACCGA [EX4 B.6] (Eterna round: R97, puzzle: Exclusion 4)
6. GAAGAUCGAGUUAGGAUAUGAUUACUAUCCGAAAAUCAGAAGGAACUUGAGGAUCACCCAAGUAAAGAAGAAAU [JR_BMEx4_Sub051] (Eterna round: R97, puzzle: Brourd's mod of Exclusion 4)
7. UGUUGUUACGCAGGAUAUGCAUGAGGAUCACCCAUGCAAUUAGAGUUAACAUGAGGAUCACCCAUGUAGAAGGGCGGGUUAACA [pwkr exNG2 2xF5 1xFMN.4] (Eterna round: R96, puzzle: Exclusion NG 2)

52.3
33.2
1050
230
18.6
22.9
82.2

----------
- Tested on: MS2 coat protein
- assayComment: apparent KD of MS2 coat protein; designed switch direction (-1 OFF switch, 1 ON switch): 1; higher = weaker reporter binding
- condition: input ligand: microRNA oligo, concentration not stated
readoutLabel: apparent KD of MS2 coat protein (nM)
Give bare numbers, in nM.

Sample records with apparent KD of MS2 coat protein:
- entrySequence: "UUAAUGAUGUAAGGAUAUACAUGAGGAUUUCUCGUAGAAGGUACAGGACAUGAGGAUCACCCAUGUAUCGCUCCGUAGAGCGUA [JL SSNG1 1.11] (Eterna round: R96, puzzle: Same State NG 1)"
  apparent KD of MS2 coat protein [nM]: 292
- entrySequence: "AAACUGGAGGACAAGGAUAUGUGCUCUACGACAUGAGGAUCACCCAUGUGAGACGUAGUAGUGAAACAGAAGGUGUCCUAUUGUA [Tiarri] (Eterna round: R96, puzzle: Same State 2)"
  apparent KD of MS2 coat protein [nM]: 14.2
- entrySequence: "GCGAGCGUACUUGCUACAUGAGGAUCACCCAUGUUCGUUGGACAGGAUAUGGUACCGUUUCGGUACCAGAAGGGUUCAUCAUGU [JL SSNG3 3.75] (Eterna round: R96, puzzle: Same State NG 3)"
  apparent KD of MS2 coat protein [nM]: 188

I need apparent KD of MS2 coat protein for every entry listed below, if you could help.
1. ACAUGAAAUUGAGGAUAUUUUGUACCUACAUGUGACAUGAGGAUCACCCAUGUGGUAAGUAUAAGAAAGAAGGCAAAGAUAUGU [Equivalence 7 - Jieux - Same State NG 2] (Eterna round: R96, puzzle: Same State NG 2)
2. GGAGCCAAGGCAGGAUAUUCAUAUUAAUAACACAUGAGGAUCACCCAUGUGGCCAGAAGGCCAAGGGAGAAGGGCCAUGGCUCG [Xeonanis - 13 mod11] (Eterna round: R96, puzzle: Same State NG 2)

1. 30.8
2. 65.4
